- Experimental details: Stability of the compound in stimulated […] fluid at pH 6.8 measured after 12 hrs
- Format: ADME
- Cond: simulated intestinal fluid, read-out: Stability
Quantity name: remaining at 12 h (%)

Compound	Quantity name	Unit string	Endpoint value
CC(C)C[C@H](NC(=O)CNC(=O)c1cc(Cl)ccc1Cl)B1OC2C3CC(C(=O)O)C(O3)C2O1 (some centres undefined)	remaining at 12 h	%	19.9

[A] CC(C)C[C@H](NC(=O)CNC(=O)c1cc(Cl)ccc1Cl)B1OC2C3OC(CC3C(=O)O)C2(C)O1 (some centres undefined)
[B] CC(C)C[C@H](NC(=O)CNC(=O)c1cc(Cl)ccc1Cl)B1OC2(C)CCC(C(=O)O)CC2(C)O1 (some centres undefined)
[C] CC(C)C[C@H](NC(=O)C(CC1CC1)NC(=O)c1cc(C(F)(F)F)ccc1C(F)(F)F)B1OC2C3OC(CC3C(=O)O)C2(C)O1 (some centres undefined)
Q: Ordering criterion: remaining at 12 h; begin with the maximum. Reply with the item labels sorted in the order that was asked for.
A: B, A, C
(B: 78.7%, A: 14.2%, C: 6.77%)

* * *

- Experimental details: AUC (0-t) in Sprague-Dawley rat at 0.4 mg/kg,iv measured upto 24 hrs by LC-MS/MS analysis
- Type: ADME, organism-based
- Parameters: time < 24 hrs, dose 0.4 mg/kg, route iv
- Cond: in vivo
Quantity name: AUC(0-t) at 24 h (ng·h/mL)

[I] CC(C)C[C@H](NC(=O)C(NC(=O)c1cc(C(F)(F)F)ccc1C(F)(F)F)C1CC1)B1OC2C3OC(CC3C(=O)O)C2(C)O1 (some centres not stated)
[II] CC(C)C[C@H](NC(=O)C(CC1CC1)NC(=O)c1cc(C(F)(F)F)ccc1C(F)(F)F)B1OC2C3OC(CC3C(=O)O)C2(C)O1 (some centres not stated)
Q: Which entry has a larger number for AUC(0-t) at 24 h, I or II ? # reply format: chosen label
A: II

* * *

- Experimental details: Stability of the compound in stimulated […] fluid at pH 1.2 measured after 2 hrs
- Type: ADME
- Cond: simulated gi fluid, pH 1.2, 2 h
Quantity name: Stability (%)

Compound	Endpoint value
CC(C)C[C@H](NC(=O)CNC(=O)c1cc(Cl)ccc1Cl)B1OC2C3OC(CC3C(=O)O)C2(C)O1 (some centres undefined)	60.84

[P] CC(C)C[C@H](NC(=O)CNC(=O)c1cc(Cl)ccc1Cl)B1OC2(C)CC3C(=O)NC(=O)C3CC2(C)O1 (some centres undefined)
[Q] CC(C)C[C@H](NC(=O)CNC(=O)c1cc(Cl)ccc1Cl)B(O)O [IXAZOMIB]
[R] CC(C)C[C@H](NC(=O)CNC(=O)c1cc(Cl)ccc1Cl)B1OC2C3OC(c4ccccc43)C2O1 (some centres undefined)
Q: Arrange the 3 entries by Stability so the values rise. Reply with the item labels sorted in the order that was asked for.
A: R, P, Q
(R: 35.35%, P: 51.59%, Q: 100%)

* * *

- Experimental details: Oral bioavailability in Sprague-Dawley rat at 1.2 mg/kg measured upto 24 hrs by LC-MS/MS analysis
- Type: ADME, organism-based
- Cond: in vivo
Quantity name: bioavailability (%)

[I] CC(C)C[C@H](NC(=O)C(NC(=O)c1cc(C(F)(F)F)ccc1C(F)(F)F)C1CC1)B1OC2C3OC(CC3C(=O)O)C2(C)O1 (some centres not stated)
[II] CC(C)C[C@H](NC(=O)C(CC1CC1)NC(=O)c1cc(C(F)(F)F)ccc1C(F)(F)F)B1OC2C3OC(CC3C(=O)O)C2(C)O1 (some centres not stated)
Q: Which record shows the lower bioavailability: the first, I , or the second, II ? # reply format: chosen label
A: I

* * *

- Experimental details: Stability of the compound in stimulated […] fluid at pH 6.8 measured after 12 hrs
- Format: ADME
- Cond: simulated intestinal fluid, read-out: Stability
Quantity name: remaining at 12 h (%)

Compound	Unit string	remaining at 12 h
CC(C)C[C@H](NC(=O)CNC(=O)c1cc(Cl)ccc1Cl)B(O)O	%	100
CC(C)C[C@H](NC(=O)C(NC(=O)c1cc(C(F)(F)F)ccc1C(F)(F)F)C1CC1)B1OC2C3OC(CC3C(=O)O)C2(C)O1 (stereo not given in full)	%	5.76

[1] CC(C)C[C@H](NC(=O)CNC(=O)c1cc(Cl)ccc1Cl)B1OC2C3OC(C4C(=O)NC(=O)C34)C2(C)O1 (stereo not given in full)
[2] CC(C)C[C@H](NC(=O)CNC(=O)c1cc(Cl)ccc1Cl)B1OC2(C)CC3C(=O)NC(=O)C3CC2(C)O1 (stereo not given in full)
[3] CC(C)C[C@H](NC(=O)CNC(=O)c1cc(Cl)ccc1Cl)B1OC2C3OC(c4ccccc43)C2O1 (stereo not given in full)
Q: Arrange the 3 entries by remaining at 12 h so the values rise. Reply with the item labels sorted in the order that was asked for.
A: 3, 2, 1
(3: 1.33%, 2: 7.27%, 1: 10.8%)

* * *

- Target or test system: 20S proteasome
- Experimental details: Inhibition of human 20S proteasome chymotrypsin-like activity using Suc-Leu-Leu-Val-Tyr-AMC as fluorogenic peptide pre-incubated for 10 mins with compound followed by substrate addition for 60 mins by spectrofluorimetric analysis
- Assay type: protein-complex assay
pIC50: −log10 of the molar value.
Quantity name: pIC50

Molecule	Endpoint value
CC(C)C[C@H](NC(=O)CNC(=O)c1cc(Cl)ccc1Cl)B1OC2(C)CC3C(=O)NC(=O)C3CC2(C)O1 (stereo partly drawn)	8.08
CC(C)C[C@H](NC(=O)CNC(=O)c1cc(Cl)ccc1Cl)B1OC2CC3C(=O)NC(=O)C3CC2(C)O1 (stereo partly drawn)	8.01
CC(C)C[C@H](NC(=O)CNC(=O)c1cc(Cl)ccc1Cl)B1OC2C3OC(c4ccccc43)C2O1 (stereo partly drawn)	8.11

[A] CC(C)C[C@H](NC(=O)CNC(=O)c1cc(Cl)ccc1Cl)B1OC2C3CC(C(=O)O)C(O3)C2O1 (stereo partly drawn)
[B] CC(C)C[C@H](NC(=O)CNC(=O)c1cc(F)ccc1F)B(O)O
[C] Cc1cc(C(=O)NCC(=O)N[C@@H](CC(C)C)B(O)O)no1
[D] CC(C)C[C@H](NC(=O)C1(NC(=O)c2cc(C(F)(F)F)ccc2C(F)(F)F)CCCC1)B(O)O
[E] CC(C)C[C@H](NC(=O)C(NC(=O)c1cc(C(F)(F)F)ccc1C(F)(F)F)C1CCCC1)B1OC2C3OC(CC3C(=O)O)C2(C)O1 (stereo partly drawn)
Q: Ordering criterion: pIC50; begin with the maximum. Reply with the item labels sorted in the order that was asked for.
A: E, A, B, C, D
(E: 8.62, A: 8.20, B: 7.69, C: 6.91, D: 6.55)

* * *

- Experimental details: Stability of the compound in stimulated […] fluid at pH 6.8 measured after 1 min
- Format: ADME
- Cond: simulated intestinal fluid, read-out: Stability
Quantity name: remaining at 1 min (%)

Here is how some compounds turned out for remaining at 1 min.
Compound	Unit string	remaining at 1 min
CC(C)C[C@H](NC(=O)C(NC(=O)c1cc(C(F)(F)F)ccc1C(F)(F)F)C1CC1)B1OC2C3OC(CC3C(=O)O)C2(C)O1 (some centres undefined)	%	2.35
CC(C)C[C@H](NC(=O)CNC(=O)c1cc(Cl)ccc1Cl)B1OC2C3OC(CC3C(=O)O)C2(C)O1 (some centres undefined)	%	7.36

[I] CC(C)C[C@H](NC(=O)CNC(=O)c1cc(Cl)ccc1Cl)B1OC2C3OC(C4C(=O)NC(=O)C34)C2(C)O1 (some centres undefined)
[II] CC(C)C[C@H](NC(=O)CNC(=O)c1cc(Cl)ccc1Cl)B1OC2C3OC(c4ccccc43)C2O1 (some centres undefined)
[III] CC(C)C[C@H](NC(=O)CNC(=O)c1cc(Cl)ccc1Cl)B1OC2(C)CCC(C(=O)O)CC2(C)O1 (some centres undefined)
[IV] CC(C)C[C@H](NC(=O)CNC(=O)c1cc(Cl)ccc1Cl)B1OC2(C)CC3C(=O)NC(=O)C3CC2(C)O1 (some centres undefined)
Q: Ordering criterion: remaining at 1 min; begin with the maximum. Reply with the item labels sorted in the order that was asked for.
A: III, I, IV, II
(III: 90.1%, I: 15%, IV: 5.4%, II: 1.9%)

[1] CC(C)C[C@H](NC(=O)C(CC1CC1)NC(=O)c1cc(C(F)(F)F)ccc1C(F)(F)F)B1OC2C3OC(CC3C(=O)O)C2(C)O1 (some centres undefined)
[2] CC(C)C[C@H](NC(=O)CNC(=O)c1cc(Cl)ccc1Cl)B(O)O
Q: Which entry has a larger number for remaining at 1 min, 1 or 2 ? # reply format: chosen label
A: 2
(2: 12.6%, 1: 2.27%)

* * *

- Experimental details: Stability of the compound in stimulated […] fluid at pH 1.2 measured after 4 hrs
- Type: ADME
- Cond: simulated gi fluid, pH 1.2, 4 h
Quantity name: Stability (%)

Compound	Stability / %
CC(C)C[C@H](NC(=O)CNC(=O)c1cc(Cl)ccc1Cl)B1OC2C3OC(CC3C(=O)O)C2(C)O1 (some centres undefined)	61.18
CC(C)C[C@H](NC(=O)CNC(=O)c1cc(Cl)ccc1Cl)B1OC2(C)CCC(C(=O)O)CC2(C)O1 (some centres undefined)	97.62
CC(C)C[C@H](NC(=O)CNC(=O)c1cc(Cl)ccc1Cl)B1OC2C3OC(C4C(=O)NC(=O)C34)C2(C)O1 (some centres undefined)	70.5
CC(C)C[C@H](NC(=O)CNC(=O)c1cc(Cl)ccc1Cl)B1OC2C3CC(C(=O)O)C(O3)C2O1 (some centres undefined)	82.49
